test: Toxicity in brine shrimp assessed as mortality at 20 ug/ml; type: organism-based; details: artemia, in vivo; read-out: Activity
mortality at 20 ug/ml by entry:
Remember to quote the unit after the number.

COMPOUND: CC[C@H](C)[C@H](NC(=O)[C@@H]1CCCN1C(=O)/C1=C\N[C@@H](C(C)C)C(=O)N2CCC[C@H]2C(=O)N[C@@H](C(C)C)C(=O)N[C@@H](Cc2ccccc2)C(=O)N2CCC[C@H]2C(=O)N2CCC[C@H]2C(=O)N[C@@H](CC(C)C)C(=O)N1)C(=O)O
mortality at 20 ug/ml: 30%

COMPOUND: CC[C@H](C)[C@H](NC(=O)[C@@H](NC(=O)[C@@H]1CCCN1C(=O)/C1=C/N[C@@H](CC(C)C)C(=O)N2CCC[C@H]2C(=O)N[C@@H](Cc2ccccc2)C(=O)N[C@@H](Cc2ccccc2)C(=O)N2CCC[C@H]2C(=O)N2CCC[C@H]2C(=O)N[C@@H](C(C)C)C(=O)N1)[C@@H](C)CC)C(=O)NCC(=O)O
mortality at 20 ug/ml: 45%

Now take the following compound into account.
Enquiry: Which value of mortality at 20 ug/ml has been reported for CC[C@@H](C)[C@@H]1NC(=O)[C@H]([C@@H](C)CC)NC(=O)[C@@H]2C[C@@H](O)CN2C(=O)[C@H]([C@H](C)CC)N/C=C(\C(=O)N2CCC[C@H]2C(=O)N[C@H](C(=O)N[C@H](C(=O)O)[C@@H](C)CC)[C@@H](C)CC)NC(=O)[C@H](CC(C)C)NC(=O)[C@@H]2CCCN2C(=O)[C@@H]2CCCN2C(=O)[C@H](CC(C)C)NC1=O in the records?
Return: 15%

====

assay: Toxicity in brine shrimp assessed as mortality at 50 ug/ml; format: organism-based; conditions: artemia, in vivo; read-out: Activity
PARAMETER MEASURED: mortality at 50 ug/ml (%)
Kindly answer with a numeric value in %, unit omitted.

Enquiry: Consider the compound CC[C@@H](C)[C@@H]1NC(=O)[C@H]([C@@H](C)CC)NC(=O)[C@@H]2C[C@@H](O)CN2C(=O)[C@H]([C@H](C)CC)N/C=C(\C(=O)N2CCC[C@H]2C(=O)N[C@H](C(=O)N[C@H](C(=O)O)[C@@H](C)CC)[C@@H](C)CC)NC(=O)[C@H](CC(C)C)NC(=O)[C@@H]2CCCN2C(=O)[C@@H]2CCCN2C(=O)[C@H](CC(C)C)NC1=O and give its measured mortality at 50 ug/ml.
Return: 35

Enquiry: Okay, and CC[C@H](C)[C@H](NC(=O)[C@@H](NC(=O)[C@@H]1CCCN1C(=O)/C1=C/N[C@@H](CC(C)C)C(=O)N2CCC[C@H]2C(=O)N[C@@H](Cc2ccccc2)C(=O)N[C@@H](Cc2ccccc2)C(=O)N2CCC[C@H]2C(=O)N2CCC[C@H]2C(=O)N[C@@H](C(C)C)C(=O)N1)[C@@H](C)CC)C(=O)NCC(=O)O ?
Return: 70

Enquiry: Would you kindly repeat that for CC[C@H](C)[C@H](NC(=O)[C@@H]1CCCN1C(=O)/C1=C\N[C@@H](C(C)C)C(=O)N2CCC[C@H]2C(=O)N[C@@H](C(C)C)C(=O)N[C@@H](Cc2ccccc2)C(=O)N2CCC[C@H]2C(=O)N2CCC[C@H]2C(=O)N[C@@H](CC(C)C)C(=O)N1)C(=O)O ?
Return: 55

====

test system: Candida albicans; assay: Antimicrobial activity against Candida albicans at 5 to 10 uL; type: functional
PARAMETER MEASURED: inhibition zone (IZ) (mm)
Enter your answer as a number in mm; do not include the unit.

Enquiry: So what's the measured inhibition zone (IZ) for this one? CC[C@@H](C)[C@@H]1NC(=O)[C@H](C(C)C)NC(=O)[C@@H]2C[C@@H](O)CN2C(=O)[C@H]([C@@H](C)CC)N/C=C(\C(=O)N2CCC[C@H]2C(=O)N[C@H](C(=O)N[C@@H](Cc2ccccc2)C(=O)NCC(N)=O)[C@@H](C)CC)NC(=O)[C@H](CC(C)C)NC(=O)[C@@H]2CCCN2C(=O)[C@@H]2CCCN2C(=O)[C@H](CC(C)C)NC1=O [CALLYAERIN A]
Return: 25

====

tested on: Staphylococcus aureus; experiment: Antimicrobial activity against Staphylococcus aureus at 5 to 10 uL; format: functional
PARAMETER MEASURED: inhibition zone (IZ) (mm)
Please reply with the bare figure in mm and do not write the unit itself.

Enquiry: // fetch Staphylococcus aureus inhibition zone (IZ) for CC[C@@H](C)[C@@H]1NC(=O)[C@H]([C@@H](C)CC)NC(=O)[C@@H]2C[C@@H](O)CN2C(=O)[C@H]([C@H](C)CC)N/C=C(\C(=O)N2CCC[C@H]2C(=O)N[C@H](C(=O)N[C@H](C(=O)O)[C@@H](C)CC)[C@@H](C)CC)NC(=O)[C@H](CC(C)C)NC(=O)[C@@H]2CCCN2C(=O)[C@@H]2CCCN2C(=O)[C@H](CC(C)C)NC1=O [CALLYAERIN B]
Return: 11

====

The entries below are paired with their reported inhibition zone (IZ).
tested on: Candida albicans; assay: Antimicrobial activity against Candida albicans at 5 to 10 uL; format: functional
Use mm as the unit, but write only the number.

COMPOUND: CC[C@@H]1NC(=O)[C@@H]2C[C@@H](O)CN2C(=O)[C@@H]2CCCN2C(=O)[C@H](Cc2ccccc2)NC(=O)[C@H]([C@H](C)CC)NC(=O)[C@H]([C@H](C)CC)N/C=C(\C(=O)N2CCC[C@H]2C(=O)N[C@H](C(=O)N[C@@H](CC(N)=O)C(=O)N[C@@H](C)C(=O)N[C@H](C(=O)O)[C@@H](C)CC)[C@@H](C)CC)NC(=O)[C@H](CC(C)C)NC1=O [CALLYAERIN D]
MEASURE UNIT: mm
inhibition zone (IZ): 0

COMPOUND: CC[C@H](C)[C@H](NC(=O)[C@H](Cc1ccccc1)NC(=O)[C@H](CC(C)C)NC(=O)[C@@H]1CCCN1C(=O)/C1=C\N[C@@H](C(C)C)C(=O)N2CCC[C@H]2C(=O)N[C@@H](C(C)C)C(=O)N[C@@H](Cc2ccccc2)C(=O)N2CCC[C@H]2C(=O)N1)C(=O)O [CALLYAERIN F]
MEASURE UNIT: mm
inhibition zone (IZ): 0

COMPOUND: CC[C@H](C)[C@H](NC(=O)[C@@H](NC(=O)[C@@H]1CCCN1C(=O)/C1=C/N[C@@H](CC(C)C)C(=O)N2CCC[C@H]2C(=O)N[C@@H](Cc2ccccc2)C(=O)N[C@@H](Cc2ccccc2)C(=O)N2CCC[C@H]2C(=O)N2CCC[C@H]2C(=O)N[C@@H](C(C)C)C(=O)N1)[C@@H](C)CC)C(=O)NCC(=O)O [CALLYAERIN E]
MEASURE UNIT: mm
inhibition zone (IZ): 20

Please find the next compound below.
Enquiry: Fill blank: measured inhibition zone (IZ) of the compound CC[C@@H](C)[C@@H]1NC(=O)[C@H]([C@@H](C)CC)NC(=O)[C@@H]2C[C@@H](O)CN2C(=O)[C@H]([C@H](C)CC)N/C=C(\C(=O)N2CCC[C@H]2C(=O)N[C@H](C(=O)N[C@H](C(=O)O)[C@@H](C)CC)[C@@H](C)CC)NC(=O)[C@H](CC(C)C)NC(=O)[C@@H]2CCCN2C(=O)[C@@H]2CCCN2C(=O)[C@H](CC(C)C)NC1=O [CALLYAERIN B] is ____.
Return: 15

====

tested on: Escherichia coli; assay: Antimicrobial activity against Escherichia coli at 5 to 10 uL; type: functional
Reported values of inhibition zone (IZ) for individual entries
All answers are understood in mm, so give the number only.

COMPOUND: CC[C@H](C)[C@H](NC(=O)[C@@H](NC(=O)[C@@H]1CCCN1C(=O)/C1=C/N[C@@H](CC(C)C)C(=O)N2CCC[C@H]2C(=O)N[C@@H](Cc2ccccc2)C(=O)N[C@@H](Cc2ccccc2)C(=O)N2CCC[C@H]2C(=O)N2CCC[C@H]2C(=O)N[C@@H](C(C)C)C(=O)N1)[C@@H](C)CC)C(=O)NCC(=O)O
MEASURE UNIT: mm
VALUE MEASURED: 9
//
COMPOUND: CC[C@H](C)[C@H](NC(=O)[C@H](Cc1ccccc1)NC(=O)[C@H](CC(C)C)NC(=O)[C@@H]1CCCN1C(=O)/C1=C\N[C@@H](C(C)C)C(=O)N2CCC[C@H]2C(=O)N[C@@H](C(C)C)C(=O)N[C@@H](Cc2ccccc2)C(=O)N2CCC[C@H]2C(=O)N1)C(=O)O
MEASURE UNIT: mm
VALUE MEASURED: 0
//
COMPOUND: CC[C@@H](C)[C@@H]1NC(=O)[C@H](C(C)C)NC(=O)[C@@H]2C[C@@H](O)CN2C(=O)[C@H]([C@@H](C)CC)N/C=C(\C(=O)N2CCC[C@H]2C(=O)N[C@H](C(=O)N[C@@H](Cc2ccccc2)C(=O)NCC(N)=O)[C@@H](C)CC)NC(=O)[C@H](CC(C)C)NC(=O)[C@@H]2CCCN2C(=O)[C@@H]2CCCN2C(=O)[C@H](CC(C)C)NC1=O
MEASURE UNIT: mm
VALUE MEASURED: 10

Enquiry: What value of inhibition zone (IZ) on Escherichia coli does CC[C@@H]1NC(=O)[C@@H]2C[C@@H](O)CN2C(=O)[C@@H]2CCCN2C(=O)[C@H](Cc2ccccc2)NC(=O)[C@H]([C@H](C)CC)NC(=O)[C@H]([C@H](C)CC)N/C=C(\C(=O)N2CCC[C@H]2C(=O)N[C@H](C(=O)N[C@@H](CC(N)=O)C(=O)N[C@@H](C)C(=O)N[C@H](C(=O)O)[C@@H](C)CC)[C@@H](C)CC)NC(=O)[C@H](CC(C)C)NC1=O have?
Return: 0
